test system: Staphylococcus epidermidis; test: Antibacterial activity against Staphylococcus epidermidis ATCC 49134 after 18 hrs by microdilution method; type: functional; settings: ATCC 49134, 18 h
value kind: MIC (µg/mL)
Could you give me the number in µg/mL? Just the number is fine.

# compound structure string, MIC / µg/mL
rows = [
    ("CCOC(=O)[C@H](Cc1c[nH]c2ccccc12)NCc1c2c(O)c3c(O)c(C)c4c(c3c1O)C(=O)[C@@](C)(O/C=C/[C@H](OC)[C@@H](C)[C@@H](OC(C)=O)[C@H](C)[C@H](O)[C@H](C)[C@@H](O)[C@@H](C)/C=C/C=C(/C)C(=O)N2)O4", 0.063),
    ("CCOC(=O)[C@H](CCCCN)NCc1c2c(O)c3c(O)c(C)c4c(c3c1O)C(=O)[C@@](C)(O/C=C/[C@H](OC)[C@@H](C)[C@@H](OC(C)=O)[C@H](C)[C@H](O)[C@H](C)[C@@H](O)[C@@H](C)/C=C/C=C(/C)C(=O)N2)O4", 1),
    ("CO[C@H]1/C=C/O[C@@]2(C)Oc3c(C)c(O)c4c(O)c(c(C=O)c(O)c4c3C2=O)NC(=O)/C(C)=C\\C=C\\[C@H](C)[C@H](O)[C@@H](C)[C@@H](O)[C@@H](C)[C@H](OC(C)=O)[C@@H]1C", 1),
]

Now for the compound whose MIC we want.
Task item: Any idea what its MIC is? The compound is CCOC(=O)[C@H](Cc1ccc(O)cc1)NCc1c2c(O)c3c(O)c(C)c4c(c3c1O)C(=O)[C@@](C)(O/C=C/[C@H](OC)[C@@H](C)[C@@H](OC(C)=O)[C@H](C)[C@H](O)[C@H](C)[C@@H](O)[C@@H](C)/C=C/C=C(/C)C(=O)N2)O4
Reply: 0.125
